List of Srxn1-GFP intensity median modified Z-score values.
System: HepG2 Srxn1-GFP reporter cells (+30 nM CDDO-Me)
experimental.protocol: Srxn1-GFP intensity median modified Z-score relative to plate median; higher = stronger NRF2 / oxidative stress reporter activation, active = hit call of the paper
experimental.setup: 10 µM; exposure time: 24h
Hit rate of the full screen: of about 2,300 compounds, about 330 (14%) showed activity. Only a sample is shown.
API note: the answer field is a bare number with no unit suffix.

Below are worked cases with known answers.
CCC(=O)O[C@]1(C(=O)CCl)[C@@H](C)CC2C3CC=C4CC(=O)C=C[C@]4(C)[C@@]3(F)[C@@H](O)C[C@@]21C (stereo partly specified) [euspeclibcmpd633]    0.492
Cc1cc(/C=C/c2ccc3cc(N(C)C)ccc3[n+]2C)c(C)n1-c1ccccc1 [euspeclibcmpd260]    28.6
C[C@@H]1CC2C3CC=C4CC(=O)C=C[C@]4(C)[C@@]3(Cl)[C@@H](O)C[C@]2(C)[C@@]1(OC(=O)c1ccco1)C(=O)CCl (stereo partly specified) [euspeclibcmpd756]    2.37
O=C(O)Cc1cc(I)c(Oc2ccc(O)c(I)c2)c(I)c1 [euspeclibcmpd1243]    8.98
COC1=CC(=O)C=C(OC)C1=O [euspeclibcmpd2007]    0.392

Next:
Request: Using the record for CCC(=O)OCC(=O)C1(OC(=O)CC)C(C)CC2C3CC=C4CC(=O)C=CC4(C)C3(Cl)C(O)CC21C (stereo unspecified) [euspeclibcmpd31] , report its Srxn1-GFP intensity median modified Z-score.
Response: -0.85

* * *

System: HepG2 Srxn1-GFP reporter cells (+30 nM CDDO-Me)
experimental.protocol: Srxn1-GFP intensity median modified Z-score relative to plate median; higher = stronger NRF2 / oxidative stress reporter activation, active = hit call of the paper
experimental.setup: 10 µM; exposure time: 24h
The whole screen tested about 2,300 compounds, of which about 330 (14%) showed activity. These entries were drawn from the full list.
assay.readout: Srxn1-GFP intensity median modified Z-score
API note: the answer field is a bare number with no unit suffix.

Request: Using the record for CC(=O)O[C@H]1CC2CCC3C(CC[C@@]4(C)C3C[C@H]([N+]3(C)CCCCC3)[C@@H]4OC(C)=O)[C@@]2(C)C[C@@H]1N1CCCCC1 (some centres undefined) [euspeclibcmpd853] , report its Srxn1-GFP intensity median modified Z-score.
Response: -0.182

Request: Then NCCC(=O)NC(Cc1c[nH]cn1)C(=O)O (centres undefined) [euspeclibcmpd1431] ?
Response: -0.178

Request: Then O=C(OCC(O)CO)c1ccccc1N=c1cc[nH]c2cc(Cl)ccc12 (centres undefined) [euspeclibcmpd1054] ?
Response: 4.38

Request: Then CCCCC1=NC2(CCCC2)C(=O)N1Cc1ccc(-c2ccccc2-c2nn[nH]n2)cc1 [euspeclibcmpd676] ?
Response: -0.243

* * *

Test system: HepG2 Srxn1-GFP reporter cells (+30 nM CDDO-Me)
experimental.protocol: Srxn1-GFP intensity median modified Z-score relative to plate median; higher = stronger NRF2 / oxidative stress reporter activation, active = hit call of the paper
experimental.setup: 10 µM; exposure time: 24h
Hit rate of the full screen: of about 2,300 compounds, about 330 (14%) showed activity.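 The calls were made as follows: active = median modified Z-score above 1.96; inactive = 1.96 or below.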 The list is a sample of the results.
// allowed return values: active, inactive

Worked set:
COc1cc2c(cc1OC)-c1c(oc3cc(O)cc(O)c3c1=O)CO2    inactive
Cc1ccc(N2CC(C(=O)NCCCn3ccnc3)CC2=O)c(F)c1 (stereo not drawn)    inactive
N[C@@H](CC(=O)N1CCn2c(nnc2C(F)(F)F)C1)Cc1cc(F)c(F)cc1F    active
CCCOc1cc(N)ccc1C(=O)OCCN(CC)CC    inactive
CC(=O)NC(CCC(N)=O)C(=O)O (stereo not drawn)    inactive
O=C(COC(=O)C12CC3CC(C1)CC(c1ccccc1)(C3)C2)Nc1ncc(C(F)(F)F)cc1Cl    inactive

Request: Hi, do you know how N=C(N)NCC1COC2(CCCCC2)O1 (stereo not drawn) came out in this test?
Response: inactive

Request: Then CC=C(c1ccc(O)cc1)C(CC)c1ccc(O)cc1 (stereo not drawn) ?
Response: inactive

Request: Then C[C@@H]1CC2C3CC(F)=C4CC(=O)C=C[C@]4(C)[C@@]3(F)[C@@H](O)C[C@]2(C)[C@@]1(O)C(=O)CO (stereo partly drawn) ?
Response: inactive

Request: Then C[C@@H]1O[C@@H](O[C@H]2[C@@H](Oc3cc(O)c4c(c3)O[C@H](c3ccc(O)cc3)CC4=O)O[C@H](CO)[C@@H](O)[C@@H]2O)[C@H](O)[C@H](O)[C@H]1O ?
Response: inactive

Request: Then O=C(O)CN(CCN(CC(=O)O)CC(=O)O)CC(=O)O ?
Response: active

Request: Then CCN(CC)CCOc1ccc2c(c1)C(=O)c1cc(OCCN(CC)CC)ccc1-2 ?
Response: active

* * *

Tested on: HepG2 Srxn1-GFP reporter cells (+30 nM CDDO-Me)
experimental.protocol: Srxn1-GFP intensity median modified Z-score relative to plate median; higher = stronger NRF2 / oxidative stress reporter activation, active = hit call of the paper
experimental.setup: 10 µM; exposure time: 24h
In all, about 2,300 compounds went through this assay and about 330 (14%) showed activity.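 The calls were made as follows: active = median modified Z-score above 1.96; inactive = 1.96 or below.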 These entries were drawn from the full list.
// allowed return values: active, inactive

CC(OC(=O)c1cc(Cl)ccc1O)C(=O)Nc1ccc([N+](=O)[O-])cc1Cl (centres undefined)    inactive
CC12CCC(=O)CC1=CCC1C2[C@@H](O)CC2(C)C1CC[C@]2(O)C(=O)COP(=O)(O)O (some centres undefined)    inactive

Request: Hi, do you know how NC(=O)C1CC2CCCCC2N1c1cc(Cl)c(C(F)(F)F)cc1[N+](=O)[O-] (centres undefined) came out in this test?
Response: inactive

Request: Then NCCCCC(NC(CCc1ccccc1)C(=O)O)C(=O)N1CCCC1C(=O)O (centres undefined) ?
Response: inactive

Request: Then NC(C(=O)C(O)C(O)CO)C(O)O (centres undefined) ?
Response: inactive

Request: Then O=C(Nc1ccc([N+](=O)[O-])cc1Cl)c1cc(Cl)ccc1O ?
Response: active

Request: Then O=C(O)c1cc(=O)[nH]c(=O)[nH]1 ?
Response: inactive

Request: Then CC(C)=CCC=C(C)C=Cc1c(C)c(O)c2ccccc2c1O ?
Response: inactive

Request: Then c1ccc(C(c2ccccc2)(c2ccccc2)n2ccnc2)cc1 ?
Response: inactive

Request: Then S=c1ccss1 ?
Response: active

Request: Then O=C(O)c1cc2cc(Cl)ccc2[nH]1 ?
Response: active

Request: Then CN(C)[C@@H]1C(O)=C(C(N)=O)C(=O)[C@@]2(O)C(O)c3c(c(O)c4c(Cl)ccc(O)c4c3O)C[C@@H]12 (some centres undefined) ?
Response: inactive

Request: Then CC(C(=O)O)c1ccc2c(c1)[nH]c1ccc(Cl)cc12 (centres undefined) ?
Response: inactive

Request: Then NC(=O)c1ccc([N+](=O)[O-])cc1Cl ?
Response: inactive

Request: Then COCCCOc1cc(C[C@@H](C[C@H](N)[C@@H](O)CC(C(=O)NCC(C)(C)C(N)=O)C(C)C)C(C)C)ccc1OC (some centres undefined) ?
Response: inactive

Request: Then C/C(=C\CO)CC[C@H](C)CCC[C@H](C)CCCC(C)C ?
Response: inactive

Request: Then OCc1c[nH]c2ccccc12 ?
Response: inactive

Request: Then c1ccc2c(Cc3c[nH]c4ccccc34)c[nH]c2c1 ?
Response: active

Request: Then N#Cc1ccc(C(c2ccc(C#N)cc2)n2cncn2)cc1 ?
Response: inactive

* * *

Test system: HepG2 Srxn1-GFP reporter cells (+30 nM CDDO-Me)
experimental.protocol: Srxn1-GFP intensity median modified Z-score relative to plate median; higher = stronger NRF2 / oxidative stress reporter activation, active = hit call of the paper
experimental.setup: 10 µM; exposure time: 24h
Hit rate of the full screen: of about 2,300 compounds, about 330 (14%) showed activity.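 Rule for the calls: active = median modified Z-score above 1.96; inactive = 1.96 or below.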 A selection follows.
// allowed return values: active, inactive

COc1ccc(-c2cc(=O)c3c(O)c(OC)c(OC)c(OC)c3o2)cc1    inactive
COC(=O)CCC(C)C1CCC2C3CC[C@@H]4C[C@H](O)CC[C@]4(C)C3C[C@H](O)[C@]12C (stereo partly specified)    inactive
CCCC(=O)O[C@]1(C(=O)CO)CCC2[C@@H]3CC=C4CC(=O)CC[C@]4(C)C3[C@@H](O)C[C@@]21C (stereo partly specified)    inactive
CC(=O)C1CCC2C3CC=C4CC(=O)CC[C@]4(C)C3CC[C@]12C (stereo partly specified)    active

Request: Hi, do you know how CCCC[C@@H](CC)COC(=O)c1ccccc1O came out in this test?
Response: inactive

Request: Then O=c1c(O)c(-c2ccc(O)c(O)c2)oc2cc(O)cc(O)c12 ?
Response: inactive

Request: Then O=C(O)C(O)[C@H](O)[C@H](O)[C@H](O)[C@H](O)CO (stereo partly specified) ?
Response: inactive

Request: Then COc1ccc(-c2cc(=O)c3c(OC)c(OC)c(OC)c(OC)c3o2)cc1 ?
Response: active

Request: Then CCOC(=O)O[C@]1(C(=O)COC(=O)CC)CCC2C3CC=C4CC(=O)C=C[C@]4(C)C3[C@@H](O)C[C@@]21C (stereo partly specified) ?
Response: inactive

Request: Then CCCc1nc2c(C)cc(-c3nc4ccccc4n3C)cc2n1Cc1ccc(-c2ccccc2C(=O)O)cc1 ?
Response: active

Request: Then CCc1c(C)cn(C(=O)NCCc2ccc(S(=O)(=O)NC(=O)N[C@H]3CC[C@H](C)CC3)cc2)c1O ?
Response: inactive

Request: Then CC(=O)C(O)Nc1c(I)c(C(=O)NC(CO)CO)c(I)c(C(=O)NC(CO)CO)c1I (stereo unspecified) ?
Response: inactive
